src = PubChem BioAssay

assay: basal S. cerevisiae growth modulation, no modifier, primary screen, OD600, strain BY4716, 24 h, basal condition (AID 1173); details: OD600, 24 h, higher = more signal, called active from +8 up or from −8 down

COMPOUND	z-score
COC(=O)[C@@]1(Cc2ccccc2)N=C(c2ccc(OCCCO)cc2)O[C@H]1c1ccccc1N=[N+]=[N-]	0.0975
CC(C)NC(=O)[C@@H]1c2ccccc2C(=O)N(Cc2ccccc2Cl)[C@H]1c1ccc(CO)cc1	-0.197
CC(C)C[C@@H]1NC(=O)[C@H]2C[C@@H](C(=O)NCCCCCNC(=O)CS)[C@@H](c3cccc(OCCO)c3)N2C1=O	-0.45
COC(=O)[C@@]1(Cc2ccccc2)[C@H]2c3cc(C(=O)N(C)C)n(Cc4c(-c5ccccc5)noc4C)c3C[C@H]2CN1C(=O)c1ccccc1	1.56
[N-]=[N+]=NCc1ccccc1C[C@@]1(C(=O)NCC(O)CO)N=C(c2ccc(OCCCO)cc2)O[C@@H]1c1ccccc1CN=[N+]=[N-] (stereo not given in full)	-0.247
O=C(CCN1CCOCC1)c1cccc(O)c1	-0.804
C=CCC(OC(C)=O)[C@@H]1[C@@H](N(Cc2ccc(-c3cccc(C(F)(F)F)c3)o2)C(=O)c2ccc(C)cc2)c2cc(OCCCO)ccc2N1C(=O)c1ccc(-c2ccccc2)cc1 (stereo not given in full)	-0.15
C=CCNC(=O)[C@@H]1[C@H]2C(=O)O[C@H](c3ccccc3)[C@H](c3ccccc3)N2[C@H](c2ccc(OCCO)cc2)[C@@]12C(=O)Nc1ccccc12	-1.67
C=CCNC(=O)[C@H]1[C@@H]2C(=O)O[C@@H](c3ccccc3)[C@@H](c3ccccc3)N2[C@@H](c2ccc(O)cc2)[C@]12C(=O)N(C(=O)OCCOC)c1ccc(C#CCCO)cc12	-0.385
O=C1O[C@H](c2ccccc2)[C@H](c2ccccc2)N2[C@H]1[C@@H](C(=O)NC[C@H](O)c1ccccc1)[C@]1(C(=O)Nc3ccc(C#CCCO)cc31)[C@H]2c1ccc(O)cc1	0.047
[N-]=[N+]=Nc1ccccc1C[C@]1(C(=O)NCCN2CCOCC2)N=C(c2ccc(OCCCO)cc2)O[C@H]1c1ccccc1	-3.1
CC(C)c1ccc(NN2C(C(O)c3ccc(N(C)C)cc3)C=CC3C(=O)N(c4ccccc4)C(=O)C32)cc1 (stereo not given)	0.254
CC(=O)C1=CCC(c2ccccc2)N(S(=O)(=O)c2ccc(C)cc2)C1 (stereo not given)	0.832
O=C(CS)NCCCCCCNC(=O)[C@H]1C[C@H]2C(=O)N3CCC[C@H]3C(=O)N2[C@H]1c1cccc(OCCO)c1	0.232
C=C[C@@H](COC(C)=O)N(Cc1ccc([N+](=O)[O-])cc1)S(=O)(=O)c1ccc(Br)cc1	-0.367

* * *

assay: basal MM1S mitochondrial membrane potential changes, profiling panel, cell-based, JC-1 fluorescence, 24 h, 100 nL compound (AID 1170); details: higher = more signal; further: test concentration not given here

MOLECULE	z-score
O=C/C=C/c1ccc2c(c1)OCO2	0.386
COc1cc2c(cc1O)C(C)N(Cc1cccc(OC(F)(F)F)c1)CC2 (centres undefined)	-1.24
COCCOC(=O)N1C(=O)[C@@]2(c3cc(C#CC4=CCCCC4)ccc31)[C@H](C(=O)NC[C@H](O)c1ccccc1)[C@H]1C(=O)O[C@H](c3ccccc3)[C@H](c3ccccc3)N1[C@@H]2c1ccc(O)cc1	0.0116
CCOC(=O)C[C@H]1[C@H](OC(=O)c2ccc(-c3ccccc3)cc2)[C@@H](NC(=O)Cc2ccc(OC)cc2)c2cc(OCCCO)ccc2N1C(=O)c1ccc2ccccc2n1	-0.625
